System: 648629-189-R-J1-PDC spheroids with HUVEC/MSC, viability;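 note: spheroids exposed to agents for seven days before reading; percent of vehicle control luminescence where 100% = DMSO treated spheroids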
experimental-protocol: Anticancer human tumor 648629-189-R-J1-PDC patient-derived bladder carcinoma cell line growth inhibition [PI3K]
study-conditions: second compound 0.316 µM; first compound 0.01 µM; hits give low values
// viability, T/C lookup, one value per entry
Number only, in %; omit the unit.

Answered examples (5):
[
  {
    "compound": "CCN1CCN(Cc2ccc(Nc3ncc(F)c(-c4cc(F)c5nc(C)n(C(C)C)c5c4)n3)nc2)CC1 + Cc1nc(NC(=O)N2CCCC2C(N)=O)sc1-c1ccnc(C(C)(C)C(F)(F)F)c1",
    "viability, T/C [%]": 93.7
  },
  {
    "compound": "Cn1ncnc1[C@H]1c2n[nH]c(=O)c3cc(F)cc(c23)N[C@@H]1c1ccc(F)cc1 + Cc1nc(NC(=O)N2CCCC2C(N)=O)sc1-c1ccnc(C(C)(C)C(F)(F)F)c1",
    "viability, T/C [%]": 78.3
  },
  {
    "compound": "CC(C)n1nc(-c2ccc3oc(N)nc3c2)c2c(N)ncnc21 + Cc1nc(NC(=O)N2CCCC2C(N)=O)sc1-c1ccnc(C(C)(C)C(F)(F)F)c1",
    "viability, T/C [%]": 82
  },
  {
    "compound": "CC(C)n1nc(-c2ccc3oc(N)nc3c2)c2c(N)ncnc21 + CC(Nc1ccc2c(c1)OCCn1cc(N3C(=O)OCC3C(F)F)nc1-2)C(N)=O",
    "viability, T/C [%]": 74.6
  },
  {
    "compound": "Cn1ncnc1[C@H]1c2n[nH]c(=O)c3cc(F)cc(c23)N[C@@H]1c1ccc(F)cc1 + CC(Nc1ccc2c(c1)OCCn1cc(N3C(=O)OCC3C(F)F)nc1-2)C(N)=O",
    "viability, T/C [%]": 69.7
  }
]

Turning now to a further record.
Challenge: Find the measured viability, T/C of CC(C)n1nc(-c2ccc3oc(N)nc3c2)c2c(N)ncnc21 + CC(Nc1ncnc2nc[nH]c12)c1cc2cccc(Cl)c2c(=O)n1-c1ccccc1 with 648629-189-R-J1-PDC spheroids with HUVEC/MSC, viability as test system.
Response given: 85.8
